Assay: Cytotoxicity against HEK293T cells assessed as inhibition of cell growth incubated for 72 hrs by MTT assay
Type: toxicity, cell-based, HEK-293T
Conditions: human
// reported IC50 at 72 h per item

compound | IC50 at 72 h (µM)
C[C@]12CC[C@@H]3c4ccc(OCCCC[Se]C#N)cc4CC[C@H]3[C@@H]1CCC2=O | 42.8
COc1ccc2c(c1)CC[C@@H]1[C@@H]2CC[C@]2(C)C(OC(=O)c3ccc(C[Se]C#N)cc3)CC[C@@H]12 (some centres undefined) | 29.7
C[C@]12CC[C@@H]3c4ccc(OCCCCCCCC[Se]C#N)cc4CC[C@H]3[C@@H]1CCC2=O | 8.9
C[C@]12CC[C@@H]3c4ccc(OCC[Se]C#N)cc4CC[C@H]3[C@@H]1CCC2=O | 51.1
